Tested on: DU-145 prostate
experiment: NCI tumour cell line growth inhibition, 48 h
measurement_name: GI50

Before answering, review these 3 worked examples.
[[record]]
compound = "CCCCCCCCCCSC(=N)N (tested in a mixture with another compound)"
measurement_name = "GI50"
meas_value = "4.47 µM"

[[record]]
compound = "CCNC(=O)C#Cc1ccc2c(C(=Nc3ccc(CN(C)C)cc3)c3ccccc3)c(O)[nH]c2c1"
measurement_name = "GI50"
meas_value = "1.26 µM"

[[record]]
compound = "COc1ccc2ncnc(Nc3ccc(OCc4ccccc4)cc3)c2c1"
measurement_name = "GI50"
meas_value = "8.2 µM"


// next item, GI50 requested
Noted for C/C=C/[C@@H]1O[C@@H]2COC(=O)C2=C[C@@H]1O : its GI50 reads 5.03 µM
